Target: binding partner (antigen) of C5A (XPA23)
Assay: Biacore, K-off, fold vs original
readout.name: fold difference in affinity vs original (fold)
State the answer as a number, implicitly in fold.

Below, each entry is followed by its recorded fold difference in affinity vs original result.
binder | fold difference in affinity vs original (fold)
C5A (XPA23) VH S105A (antibody, V domains shown) VH: EVQLLESGGGLVQPGGSLRLSCAASGFTFSKYFMFWVRQAPGKGLEWVSVISPSGGMTRYADSVKGRFTISRDNSKNTLYLQMNSLRAEDTAVYYCARVGYGGNADYWGQGTLVTVSS VL: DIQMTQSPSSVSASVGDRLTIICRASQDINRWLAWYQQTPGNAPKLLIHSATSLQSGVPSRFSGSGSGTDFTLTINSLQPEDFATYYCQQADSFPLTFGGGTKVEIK | 0.84
C5A (XPA23) VH S105P (antibody, V domains shown) VH: EVQLLESGGGLVQPGGSLRLSCAASGFTFSKYFMFWVRQAPGKGLEWVSVISPSGGMTRYADSVKGRFTISRDNSKNTLYLQMNSLRAEDTAVYYCARVGYGGNPDYWGQGTLVTVSS VL: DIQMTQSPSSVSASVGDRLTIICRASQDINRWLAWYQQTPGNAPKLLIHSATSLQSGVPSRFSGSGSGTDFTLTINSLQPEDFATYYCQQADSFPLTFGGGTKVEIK | 1.41
C5A (XPA23) VH P53A (antibody, V domains shown) VH: EVQLLESGGGLVQPGGSLRLSCAASGFTFSKYFMFWVRQAPGKGLEWVSVISASGGMTRYADSVKGRFTISRDNSKNTLYLQMNSLRAEDTAVYYCARVGYGGNSDYWGQGTLVTVSS VL: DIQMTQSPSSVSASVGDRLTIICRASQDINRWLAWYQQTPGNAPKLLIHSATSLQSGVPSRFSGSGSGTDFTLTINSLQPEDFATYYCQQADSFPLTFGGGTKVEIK | 0.05
C5A (XPA23) VH V50L (antibody, V domains shown) VH: EVQLLESGGGLVQPGGSLRLSCAASGFTFSKYFMFWVRQAPGKGLEWVSLISPSGGMTRYADSVKGRFTISRDNSKNTLYLQMNSLRAEDTAVYYCARVGYGGNSDYWGQGTLVTVSS VL: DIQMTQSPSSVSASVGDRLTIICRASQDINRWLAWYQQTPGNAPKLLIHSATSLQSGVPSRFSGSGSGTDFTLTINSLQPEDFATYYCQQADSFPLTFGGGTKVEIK | 0.09
C5A (XPA23) VH Y101L (antibody, V domains shown) VH: EVQLLESGGGLVQPGGSLRLSCAASGFTFSKYFMFWVRQAPGKGLEWVSVISPSGGMTRYADSVKGRFTISRDNSKNTLYLQMNSLRAEDTAVYYCARVGLGGNSDYWGQGTLVTVSS VL: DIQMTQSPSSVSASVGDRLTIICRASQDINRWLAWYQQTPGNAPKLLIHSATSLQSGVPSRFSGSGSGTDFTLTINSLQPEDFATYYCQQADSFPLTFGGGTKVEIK | 1.91
C5A (XPA23) VH G56P (antibody, V domains shown) VH: EVQLLESGGGLVQPGGSLRLSCAASGFTFSKYFMFWVRQAPGKGLEWVSVISPSGPMTRYADSVKGRFTISRDNSKNTLYLQMNSLRAEDTAVYYCARVGYGGNSDYWGQGTLVTVSS VL: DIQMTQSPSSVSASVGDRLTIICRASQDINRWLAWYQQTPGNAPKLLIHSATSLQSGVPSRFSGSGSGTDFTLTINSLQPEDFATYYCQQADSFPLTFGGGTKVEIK | 0.85
C5A (XPA23) VH P53L (antibody, V domains shown) VH: EVQLLESGGGLVQPGGSLRLSCAASGFTFSKYFMFWVRQAPGKGLEWVSVISLSGGMTRYADSVKGRFTISRDNSKNTLYLQMNSLRAEDTAVYYCARVGYGGNSDYWGQGTLVTVSS VL: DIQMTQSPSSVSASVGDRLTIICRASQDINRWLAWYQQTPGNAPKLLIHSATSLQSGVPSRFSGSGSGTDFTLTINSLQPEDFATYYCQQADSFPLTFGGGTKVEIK | 0.04
C5A (XPA23) VH P53G (antibody, V domains shown) VH: EVQLLESGGGLVQPGGSLRLSCAASGFTFSKYFMFWVRQAPGKGLEWVSVISGSGGMTRYADSVKGRFTISRDNSKNTLYLQMNSLRAEDTAVYYCARVGYGGNSDYWGQGTLVTVSS VL: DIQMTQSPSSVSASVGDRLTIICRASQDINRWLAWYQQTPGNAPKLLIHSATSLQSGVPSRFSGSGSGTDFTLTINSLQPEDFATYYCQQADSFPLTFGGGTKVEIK | 0.02
C5A (XPA23) VH S54P (antibody, V domains shown) VH: EVQLLESGGGLVQPGGSLRLSCAASGFTFSKYFMFWVRQAPGKGLEWVSVISPPGGMTRYADSVKGRFTISRDNSKNTLYLQMNSLRAEDTAVYYCARVGYGGNSDYWGQGTLVTVSS VL: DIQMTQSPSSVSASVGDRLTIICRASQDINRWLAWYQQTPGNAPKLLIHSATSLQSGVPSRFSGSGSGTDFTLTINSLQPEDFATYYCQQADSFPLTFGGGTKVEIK | 0.06

Req: Assign fold difference in affinity vs original to the following record: C5A (XPA23) VH S105I (antibody, V domains shown) VH: EVQLLESGGGLVQPGGSLRLSCAASGFTFSKYFMFWVRQAPGKGLEWVSVISPSGGMTRYADSVKGRFTISRDNSKNTLYLQMNSLRAEDTAVYYCARVGYGGNIDYWGQGTLVTVSS VL: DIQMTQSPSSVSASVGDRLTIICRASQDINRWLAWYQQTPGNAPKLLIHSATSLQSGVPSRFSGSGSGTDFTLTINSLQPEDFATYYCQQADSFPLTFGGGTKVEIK
Resp: 0.07
